Listing of recorded PBM E-score by entry.
Target: Ybr033w (UniProt P38073)
Sequence: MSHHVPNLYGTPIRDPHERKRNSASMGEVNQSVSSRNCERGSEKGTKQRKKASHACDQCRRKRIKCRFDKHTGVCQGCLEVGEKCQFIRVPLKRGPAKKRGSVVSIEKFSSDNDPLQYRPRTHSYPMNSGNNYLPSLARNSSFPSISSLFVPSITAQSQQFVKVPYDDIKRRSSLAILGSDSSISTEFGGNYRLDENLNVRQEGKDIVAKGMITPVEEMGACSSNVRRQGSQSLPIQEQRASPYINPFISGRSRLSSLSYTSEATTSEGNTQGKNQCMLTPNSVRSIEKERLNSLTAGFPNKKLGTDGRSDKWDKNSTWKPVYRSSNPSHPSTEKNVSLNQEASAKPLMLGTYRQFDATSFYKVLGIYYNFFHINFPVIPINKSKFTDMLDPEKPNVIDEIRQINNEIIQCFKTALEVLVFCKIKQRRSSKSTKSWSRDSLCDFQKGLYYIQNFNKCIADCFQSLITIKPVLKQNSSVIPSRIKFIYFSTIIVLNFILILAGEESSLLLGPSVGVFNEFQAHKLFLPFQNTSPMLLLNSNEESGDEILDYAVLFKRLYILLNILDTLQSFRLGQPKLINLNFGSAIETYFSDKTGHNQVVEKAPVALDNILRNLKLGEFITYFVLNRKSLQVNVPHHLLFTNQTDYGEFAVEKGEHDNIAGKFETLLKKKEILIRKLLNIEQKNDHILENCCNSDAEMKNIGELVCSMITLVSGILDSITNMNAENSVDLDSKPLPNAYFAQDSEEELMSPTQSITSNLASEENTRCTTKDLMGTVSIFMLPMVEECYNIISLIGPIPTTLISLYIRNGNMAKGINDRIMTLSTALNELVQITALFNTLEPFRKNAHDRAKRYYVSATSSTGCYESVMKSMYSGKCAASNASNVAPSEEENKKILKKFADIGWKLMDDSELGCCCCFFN
Test: PBM E-score (8-mer binding enrichment) (E-score (-0.5 to 0.5)); higher = stronger / more preferred TF binding
Details: protein concentration: 200 nM; construct: GST-full length
Whole data set: some 33,000 sequences, median “E-score (-0.5 to 0.5)” near -0.012, cut for the highest 2% near 0.29. Many of the other results were omitted from the sample, so the highest values are more common in it than they were.
Respond using a number only.

The examples below pair each entry with its known result.
INSERT INTO results (residue_codes, assay_result) VALUES
  ('GGCTGTCA', -0.0424),
  ('CGACTGCA', -0.126),
  ('ACGGGAAT', 0.0676),
  ('ACCAGCAC', -0.0392),
  ('AAGGAAAA', 0.398);

-- ask State the measured PBM E-score (Ybr033w (UniProt P38073)) of GCTATATA
-- reply 0.194

-- ask State the measured PBM E-score (Ybr033w (UniProt P38073)) of AAGGATTG
-- reply 0.126

-- ask State the measured PBM E-score (Ybr033w (UniProt P38073)) of CCGGAAAC
-- reply 0.14

-- ask State the measured PBM E-score (Ybr033w (UniProt P38073)) of ACTAATAG
-- reply 0.2

-- ask State the measured PBM E-score (Ybr033w (UniProt P38073)) of ATTAATCG
-- reply 0.166

-- ask State the measured PBM E-score (Ybr033w (UniProt P38073)) of CGAATTAC
-- reply 0.135

-- ask State the measured PBM E-score (Ybr033w (UniProt P38073)) of AAGGAAAT
-- reply 0.185

-- ask State the measured PBM E-score (Ybr033w (UniProt P38073)) of ATTAATAC
-- reply 0.306

-- ask State the measured PBM E-score (Ybr033w (UniProt P38073)) of AGTATATC
-- reply 0.213

-- ask State the measured PBM E-score (Ybr033w (UniProt P38073)) of ATTATGTG
-- reply 0.11

-- ask State the measured PBM E-score (Ybr033w (UniProt P38073)) of GAAAATGA
-- reply 0.085

-- ask State the measured PBM E-score (Ybr033w (UniProt P38073)) of AGGACAAC
-- reply 0.0906

-- ask State the measured PBM E-score (Ybr033w (UniProt P38073)) of AGTATATA
-- reply 0.389

-- ask State the measured PBM E-score (Ybr033w (UniProt P38073)) of ATCTTCTC
-- reply 0.0573

-- ask State the measured PBM E-score (Ybr033w (UniProt P38073)) of CTTGCTGA
-- reply 0.0188

-- ask State the measured PBM E-score (Ybr033w (UniProt P38073)) of ACAGAAAT
-- reply 0.137

-- ask State the measured PBM E-score (Ybr033w (UniProt P38073)) of ATATTATG
-- reply 0.315

-- ask State the measured PBM E-score (Ybr033w (UniProt P38073)) of GATATTCC
-- reply 0.417

-- ask State the measured PBM E-score (Ybr033w (UniProt P38073)) of TAAAATTA
-- reply 0.288

-- ask State the measured PBM E-score (Ybr033w (UniProt P38073)) of ACAGAAGA
-- reply 0.0639

-- ask State the measured PBM E-score (Ybr033w (UniProt P38073)) of CAAGTCGA
-- reply -0.0109
